TESTED SYSTEM: HLA-A*02:03
MEASUREMENT DESCRIPTION: IEDB peptide-MHC binding, purified MHC/competitive/radioactivity; filed as Kd, often an IC50 or EC50 that approximates it; bounds were set here for any values at or beyond the usual limits of such assays
TEST SETTINGS: source organism: Trypanosoma cruzi
pKd: −log10 of the molar value.
MEASURED METRIC: pKd

> print(dat)
        chain  endpoint.result
1  LLGLWGTAAL             8.14

---

TESTED SYSTEM: HLA-A*31:01
MEASUREMENT DESCRIPTION: IEDB peptide-MHC binding, purified MHC/competitive/radioactivity; filed as Kd, often an IC50 or EC50 that approximates it; bounds were set here for any values at or beyond the usual limits of such assays
TEST SETTINGS: source organism: SARS coronavirus Tor2
Listing of entries alongside the reported Kd.
MEASURED METRIC: Kd (nM)

> print(dat)
         chain  limit.operator  endpoint.result
 1   LMPILTLTR               =              723
 2   AANTVIWDY               ≥            38100
 3  IVPFWITAIY               =             1320
 4  TMADLVYALR               =             81.3
 5   VQMLSDTLK               =              413
 6  MLPPCYNFLK               =              129
 7   NVAYNVVNK               =             7170
 8  SSYSLFDMSK               =              253
 9  TVSALVYDNK               =             4890
10  TTEMLSRALK               =              120
